Molecular target: T1, EsCas13d, nuclease-dead (Eubacterium siraeum, UniProt B0MS50, R295A;H300A;R849A;H854A)
T1 sequence: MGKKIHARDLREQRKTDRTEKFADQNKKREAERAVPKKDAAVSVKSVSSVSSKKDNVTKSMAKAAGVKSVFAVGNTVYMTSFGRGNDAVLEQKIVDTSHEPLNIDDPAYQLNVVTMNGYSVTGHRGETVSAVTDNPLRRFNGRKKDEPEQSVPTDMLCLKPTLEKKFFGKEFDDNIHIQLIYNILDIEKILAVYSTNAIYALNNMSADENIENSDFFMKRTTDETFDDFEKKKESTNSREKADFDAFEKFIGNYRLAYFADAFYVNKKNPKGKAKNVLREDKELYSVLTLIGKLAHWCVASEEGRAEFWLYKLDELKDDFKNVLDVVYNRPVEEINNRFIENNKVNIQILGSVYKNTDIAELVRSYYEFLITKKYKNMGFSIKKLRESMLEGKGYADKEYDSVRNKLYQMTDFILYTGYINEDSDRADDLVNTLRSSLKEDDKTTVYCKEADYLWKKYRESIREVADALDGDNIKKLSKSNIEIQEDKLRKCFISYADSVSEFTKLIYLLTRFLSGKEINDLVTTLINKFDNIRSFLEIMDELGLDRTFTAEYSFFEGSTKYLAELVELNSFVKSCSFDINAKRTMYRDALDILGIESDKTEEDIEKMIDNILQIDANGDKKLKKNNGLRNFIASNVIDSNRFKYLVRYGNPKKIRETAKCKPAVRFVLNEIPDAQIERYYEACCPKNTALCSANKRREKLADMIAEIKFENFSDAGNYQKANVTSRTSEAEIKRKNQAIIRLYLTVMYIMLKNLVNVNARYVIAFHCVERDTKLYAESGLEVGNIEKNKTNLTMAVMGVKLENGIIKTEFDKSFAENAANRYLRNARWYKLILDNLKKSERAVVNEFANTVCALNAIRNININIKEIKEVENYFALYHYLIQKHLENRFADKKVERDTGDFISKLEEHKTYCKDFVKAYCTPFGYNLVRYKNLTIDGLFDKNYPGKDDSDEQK
Assay: crRNA (strand 1, pre-loaded); Mg2+; 40 mM Tris-HCl pH 7.5, 150 mM NaCl, 6 mM MgCl2, 1 mM DTT, 0.1% Tween-20, 0.2 mg/ml BSA; 25 C; 10 min per concentration, then washed
Settings: tags: His6-TwinStrep-SUMO cleaved; N-terminal SNAP kept (SNAP-Surface 488); label: 3' end held by stalled T7 RNA polymerase
pKd: −log10 of the molar value.
Threshold check on pKd: at or above 8 gives yes (1), strictly below gives no (0).

[[record]]
binder = "target 2 MT 5'PFS ACA 3'PFS AUU (mixed) RNA 1: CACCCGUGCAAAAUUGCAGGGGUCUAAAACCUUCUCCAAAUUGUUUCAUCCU RNA 2: GGGAAUGGAUCCACAUCUACGAAUUCACAAGGAUGAAACAAUUUGGAGAAGAUUAGAUCGGAAGAGCACACGU"
discrete_label = "yes (1)"

[[record]]
binder = "target 1 A14G,U19A (mixed) RNA 1: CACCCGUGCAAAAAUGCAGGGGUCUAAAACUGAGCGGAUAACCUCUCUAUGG RNA 2: GGGAAUGGAUCCACAUCUACGAAUUCGUACCAAAGAGGGGUUAUCCGCUCACCGAGAUCGGAAGAGCACACGU"
discrete_label = "no (0)"

[[record]]
binder = "target 1 MT 5'PFS GGG 3'PFS UCG (mixed) RNA 1: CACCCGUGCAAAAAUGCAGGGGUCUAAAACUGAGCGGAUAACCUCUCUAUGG RNA 2: GGGAAUGGAUCCACAUCUACGAAUUCGGGCCAUAGAGAGGUUAUCCGCUCAUCGAGAUCGGAAGAGCACACGU"
discrete_label = "no (0)"

[[record]]
binder = "target 1 C4U (mixed) RNA 1: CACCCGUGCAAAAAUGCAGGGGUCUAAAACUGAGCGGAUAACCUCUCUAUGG RNA 2: GGGAAUGGAUCCACAUCUACGAAUUCGUACCAUAGAGAGGUUAUCCGUUCACCGAGAUCGGAAGAGCACACGU"
discrete_label = "no (0)"

